Numbers sourced from PubChem BioAssay.

Below is a list of entries, each paired with its recorded z-score value.
Assay: basal RPMI8226 viability, no added stimulus, profiling panel, cell-based, calcein-AM fluorescence, 48 h, PK04 Diversity Set (AID 1166);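 also: cells grown under basal conditions without added stimulus; test concentration not given here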
Conditions: RPMI8226 myeloma viability, higher = more signal

[
  {
    "Smiles structure": "O=C/C=C/c1ccccc1Cl",
    "z-score": 0.895
  },
  {
    "Smiles structure": "COc1cccc([C@@H]2[C@@H](C)CC[C@H]3C(=O)N4[C@H](c5cccc(OC)c5)[C@@H](C)CC[C@H]4C(=O)N23)c1",
    "z-score": 1.34
  },
  {
    "Smiles structure": "C[N+](C)(C)CCCCNC(=O)[C@H]1C[C@H]2C(=O)NCC(=O)N2[C@H]1c1cccc(OCCO)c1",
    "z-score": 0.311
  },
  {
    "Smiles structure": "CCN1C(C)=C(C(=O)OC)[C@@H](c2ccccc2)N2C(=O)[C@@]3(C(=O)OC)O[C@@]12[C@@H]1C(=O)N(C)C(=O)[C@@H]13",
    "z-score": 0.68
  },
  {
    "Smiles structure": "COC(=O)[C@@]1(Cc2ccc(OC)cc2)[C@H]2c3cc(C(=O)N(C)C)n(Cc4ccc(C)c(F)c4F)c3C[C@H]2CN1C(=O)c1ccccc1",
    "z-score": -1.5
  }
]
